# TESTED_ON: T1, human BKB2R-derived epitope peptide (SEQ ID NO:73), PEG-biotin (human, also: PEG-biotin, site not given here)
# T1 construct: also called immunogenic human BKB2R peptide fragment
# T1 peptide: KEYSDEGHNVTAC
# PROTOCOL: BLI (Octet), peptide-PEG-biotin on streptavidin sensor, antibody 500 nM
Where no end group is shown, it is not given here.
OBSERVATION_TYPE: kon (M⁻¹ s⁻¹)
Numbers only, in M⁻¹ s⁻¹.

Worked examples, 2 binders total:
humanized anti-BKB2R antibody H39/L38 (antibody, human IgG2, kappa, V domains shown) VH: EVKLVESGGGLVQPGGSLRLSCAVSGFTFSDYWMDWVRQAPGKGLEWVAEIRLKSDNYATHYAASVKGRFTISRDDSKSRLYLQMNSLKTEDTAVYYCTRDYYAMEYWGQGTTVTVSS VL: DIVMTQTPLSLPVTSGEPASISCRSSQTIVHSNGKTYLDWYLQKPGQSPQLLIYKVSNRASGVPDRFSGSGSGTDFTLKISRVEAEDVGVYYCFQASHVPYTFGGGTKVEIKR
6.44e+06
humanized anti-BKB2R antibody L1/H2 (antibody, human IgG2, kappa, V domains shown) VH: EVQLVESGGGLVQPGGSLRLSCVASGFTFSDYWMSWVRQAPGKGLEWVAEIRLKSDNYATHYAESVKGRFTISRDDAKNSLYLQMNSLRAEDTAVYYCTRDYYAMEYWGQGTLVTVSS VL: DIVMTQSPLSLPVTPGEPASISCRSSQTIVHSNGKTYLEWYLQKPGQSPQLLIYKVSNRFSGVPDRFSGSGSGTDFTLKISRVEAEDVGVYYCFQASHVPYTFGQGTKLEIKR
2.43e+06

Reported kon ( humanized anti-BKB2R antibody H38/L37 (antibody, human IgG2, kappa, V domains shown) VH: EVQLLESGGGLVQPGGSLKLSCAVSGFTFSDYWMSWVRQAPGKGLEWVSEIRLKSDNYATHYADSVKGRFTISRDDSKNTLYLQMNSLRAEDTAVYYCTRDYYAMEYWGQGTLVTVSS VL: DIVMTQTPLSLSVTPGQPASISCKSSQTIVHSNGKTYLYWYLQKPGQSPQLLIYKVSSRFSGVPDRFSGSGSGTDFTLKISRVEAEDVGVYYCFQASHVPYTFGQGTKLEIKR ) = 9.44e+06
